Source of measurements: patent US20150086555A1

molecular target: recombinant homotrimeric HA A/Hong Kong/2108/03 H9N2 (Influenza A virus A/HK/2108/2003(H9N2)); test: protein microarray, purified IgG, trimeric HA; conditions: remark: other sources report otherwise
Quick reference: Trimeric HA Binding: RLU of the listed items.
Your answer is read as RLU, so omit the unit and give the number.

Binder	Unit Descriptor	Quantitative Result
TCN-557 (5081_A04) (antibody, V domains shown) VH: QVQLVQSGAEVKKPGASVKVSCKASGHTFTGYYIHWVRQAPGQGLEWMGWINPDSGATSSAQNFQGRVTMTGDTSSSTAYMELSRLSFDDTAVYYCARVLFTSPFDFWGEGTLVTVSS VL: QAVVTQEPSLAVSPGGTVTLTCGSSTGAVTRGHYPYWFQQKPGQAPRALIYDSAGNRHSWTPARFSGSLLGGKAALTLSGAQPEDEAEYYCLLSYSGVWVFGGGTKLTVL	RLU	7660

Now take the following binder into account.
// Trimeric HA Binding: RLU lookup, binder = TCN-544 (5082_A19) (antibody, V domains shown) VH: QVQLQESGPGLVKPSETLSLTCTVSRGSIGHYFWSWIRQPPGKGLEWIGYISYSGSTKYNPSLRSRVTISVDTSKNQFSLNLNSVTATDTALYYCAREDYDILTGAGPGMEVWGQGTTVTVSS VL: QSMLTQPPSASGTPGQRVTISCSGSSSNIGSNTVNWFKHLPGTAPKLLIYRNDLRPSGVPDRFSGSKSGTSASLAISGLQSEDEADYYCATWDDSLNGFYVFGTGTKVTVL , result: 145
